Field: IC50. System: BTK (Homo sapiens, UniProt Q06187). Provenance: assorted publications.
Sequence (Q06187 whole entry): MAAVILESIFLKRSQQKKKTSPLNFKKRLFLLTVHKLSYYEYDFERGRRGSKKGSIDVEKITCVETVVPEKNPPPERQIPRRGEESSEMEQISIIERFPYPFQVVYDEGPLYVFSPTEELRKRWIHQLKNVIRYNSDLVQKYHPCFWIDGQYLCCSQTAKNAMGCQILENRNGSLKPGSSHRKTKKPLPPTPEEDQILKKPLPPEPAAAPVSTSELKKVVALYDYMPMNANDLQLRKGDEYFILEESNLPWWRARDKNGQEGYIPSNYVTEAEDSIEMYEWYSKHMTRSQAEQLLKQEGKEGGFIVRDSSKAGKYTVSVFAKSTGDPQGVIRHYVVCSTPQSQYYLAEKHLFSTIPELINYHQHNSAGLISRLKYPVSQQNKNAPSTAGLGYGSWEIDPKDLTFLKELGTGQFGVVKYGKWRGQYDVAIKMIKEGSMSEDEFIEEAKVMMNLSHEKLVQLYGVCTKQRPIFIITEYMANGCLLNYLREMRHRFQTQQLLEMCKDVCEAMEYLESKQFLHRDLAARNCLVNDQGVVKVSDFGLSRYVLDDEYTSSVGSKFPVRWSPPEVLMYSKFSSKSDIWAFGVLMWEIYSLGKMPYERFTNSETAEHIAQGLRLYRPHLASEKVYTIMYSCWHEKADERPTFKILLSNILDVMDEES
MEASURED_PARAMETER: IC50

> print(dat)
                                    molecule    value.reported
 1  C#CC(=O)N1CC2CC1C(n1nc(-c3cccc(Oc4ccccc4)c3)c3c(N)ncnc31)C2 (centres unmarked)            2.1 nM
 2  CN(C)C/C=C/C(=O)N1CC[C@@H](n2nc(-c3ccc(F)cc3)c3c(N)ncnc32)C1          < 100 nM
 3  C[C@H]1CNC(=O)c2cnn3cc(C4=CCCC4)c(nc23)NCc2cc(F)cnc2O1           2070 nM
 4  O=C(O)CC[C@@H](Nc1ccccc1)C(=O)N[C@@H]1CCCN(c2ncnc3[nH]ccc23)C1  1000 to 10000 nM
 5  NC(=O)c1c(-c2ccc(Oc3ccccc3)cc2)nn(C2CCCN(C(=O)CCl)C2)c1N (centres unmarked)          < 100 nM
 6  Cn1cc(-c2cn3nccc3c(-c3ccc(CNC(=O)c4coc(C(C)(C)C)n4)c(F)c3)n2)cn1            < 1 nM
 7  C=CC(=O)Nc1cccc(-c2cc(CN3C[C@@H](C)O[C@@H](C)C3)cc(Nc3ncc(C)s3)n2)c1            1.7 nM
 8  C=CC(=O)Nc1cccc(Nc2cc(Nc3cccc(C)c3)ncn2)c1           ≤ 10 nM
 9  C=CC(=O)N(C)c1ccc(-n2c(=O)n(-c3ccc(C)c(OC)c3)c3c(N)ncnc32)cc1          < 100 nM
10  COc1cc2[nH]ncc2cc1-c1cccc2c(N)c(C(N)=O)nnc12           3.98 nM
11  Cc1ccc(NCC(=O)NC2CCCN(c3ncnc4[nH]ccc34)C2)cc1C(F)(F)F (centres unmarked)     100 to 999 nM
12  CC#CC(=O)N1CC2CC1C(n1nc(-c3ccc(Oc4ccccc4)cc3)c3c(N)ncnc31)C2 (centres unmarked)           27.6 nM
13  CCC[C@@H](Nc1cc(Cl)cc(Cl)c1)C(=O)N[C@H]1CN(c2ncnc3[nH]ncc23)CC[C@@H]1C          < 100 nM
14  Cn1cc(-c2cn3nccc3c(-c3ccc(CN4CCN(CC(C)(C)C)CC4=O)c(F)c3)n2)cn1        1 to 10 nM
15  Cc1cc(-c2ncnc3nc(N4CCC(N(C)C)CC4)[nH]c23)ccc1CNC(=O)c1cnc(C(C)(C)C)s1           < 10 nM
16  Cc1c(NC(=O)c2ccc(C(C)(C)C)cc2)cccc1-c1cc(NC(=O)NCCO)c2nccn2n1             19 nM
17  C=CC(=O)N1CCC(c2nc(-c3ccc(Oc4ccccn4)cc3)n3c(N)nccc23)C1 (racemic)          < 100 nM
18  O=C(CNC1CCCCC1)N1CCC[C@H](Nc2ncnc3[nH]ccc23)C1        > 10000 nM
19  C=CC(=O)Nc1cc(-n2c(=O)ccc3cnc4ccc(-c5ccoc5)cc4c32)ccc1C             17 nM
20  O=C(CNc1ccccc1C(F)(F)F)N1CCC[C@H](Nc2ncnc3[nH]ncc23)C1        > 10000 nM
21  CCn1cnc2cnc(N[C@H]3CCCN(C(=O)CNc4cc(Cl)cc(Cl)c4)C3)cc21        > 10000 nM
22  Cn1cc(-c2cnc3[nH]cc(C(=O)c4cc(NS(=O)(=O)C5CC5)ccc4F)c3c2)cn1        ≤ 10000 nM
23  CCCS(=O)(=O)Nc1cccc(C(=O)c2c[nH]c3ncc(Cl)cc23)c1        ≤ 10000 nM
24  C=CC(=O)N1[C@@H]2CC[C@@H](C2)[C@H]1c1nc(-c2ccc(C(=O)Nc3ccccn3)cc2)c2c(N)nccn12            3.3 nM
25  C=CC(=O)N[C@H]1CC[C@@H](Nc2nc(Nc3cnn(CCN4CCOCC4)c3)nc3ccsc23)CC1           ≤ 50 nM
26  C=CC(=O)Nc1cccc(-c2cc(CN3CCN(C(C)C)CC3)cc(Nc3ncc(C)s3)n2)c1            1.9 nM
27  Cn1cc(-c2cn3nccc3c(N3CCC(F)(CNC(=O)c4noc(C(C)(C)C)n4)CC3)n2)cn1        1 to 10 nM
28  Cc1cc(-c2ncnc3[nH]c(-c4cnn(C)c4)cc23)ccc1CNC(=O)c1cc2c(s1)CCOC2           < 10 nM
29  C=CC(=O)N1CCC[C@H](n2c(C)c(-c3ccc(Oc4ccccc4)cc3)c3c(N)ncnc32)C1            444 nM
30  C=CC(=O)N1CCC(c2nc(C(N)=O)c(-c3ccc(Oc4ccccc4)cc3)s2)C1 (centres unmarked)          < 500 nM
31  Cc1ccc2c(N)c(C(N)=O)nnc2c1-c1cc(C)c2c(cnn2C)c1           50.1 nM
32  C=CC(=O)Nc1cccc(Oc2nc(Nc3ccc(NC4CCN(C)CC4)c(Cl)c3)nc3ccsc23)c1           ≤ 50 nM
